Molecular target: T1, HLA-B*07:02 (human)
T1 construct: also called peptide-receptive MHC molecules
Experiment: UV-exchange b2m ELISA; exchange-yield grade
quantity: peptide exchange yield

Quick note, peptide exchange yield for `KPIESTLVA` landed at 50 to 75%

Recorded peptide exchange yield (binder `SPQSMSNTL` ): 50 to 75%

Lab note: `SPAMTSTSF` gave peptide exchange yield of 20 to 50%

Per the records, this binder ( `LPMWKVTAF` ) has peptide exchange yield equal to 50 to 75%

Per the records, this binder ( `FPMSPVTSV` ) has peptide exchange yield equal to 50 to 75%

The measured peptide exchange yield associated with `TPTKETVSL` reads 50 to 75%

response.value for `RPAPFEVVF` (field: peptide exchange yield) = 50 to 75%

The binder `YPEGAAYEF` showed peptide exchange yield equal to 20 to 50%
